Target: human ether-à-go-go-related gene (hERG) potassium channel (human);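 note: peak tail current of the secondary pulse compared with the same well before compound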
Sequence (Q12809 whole entry, looked up): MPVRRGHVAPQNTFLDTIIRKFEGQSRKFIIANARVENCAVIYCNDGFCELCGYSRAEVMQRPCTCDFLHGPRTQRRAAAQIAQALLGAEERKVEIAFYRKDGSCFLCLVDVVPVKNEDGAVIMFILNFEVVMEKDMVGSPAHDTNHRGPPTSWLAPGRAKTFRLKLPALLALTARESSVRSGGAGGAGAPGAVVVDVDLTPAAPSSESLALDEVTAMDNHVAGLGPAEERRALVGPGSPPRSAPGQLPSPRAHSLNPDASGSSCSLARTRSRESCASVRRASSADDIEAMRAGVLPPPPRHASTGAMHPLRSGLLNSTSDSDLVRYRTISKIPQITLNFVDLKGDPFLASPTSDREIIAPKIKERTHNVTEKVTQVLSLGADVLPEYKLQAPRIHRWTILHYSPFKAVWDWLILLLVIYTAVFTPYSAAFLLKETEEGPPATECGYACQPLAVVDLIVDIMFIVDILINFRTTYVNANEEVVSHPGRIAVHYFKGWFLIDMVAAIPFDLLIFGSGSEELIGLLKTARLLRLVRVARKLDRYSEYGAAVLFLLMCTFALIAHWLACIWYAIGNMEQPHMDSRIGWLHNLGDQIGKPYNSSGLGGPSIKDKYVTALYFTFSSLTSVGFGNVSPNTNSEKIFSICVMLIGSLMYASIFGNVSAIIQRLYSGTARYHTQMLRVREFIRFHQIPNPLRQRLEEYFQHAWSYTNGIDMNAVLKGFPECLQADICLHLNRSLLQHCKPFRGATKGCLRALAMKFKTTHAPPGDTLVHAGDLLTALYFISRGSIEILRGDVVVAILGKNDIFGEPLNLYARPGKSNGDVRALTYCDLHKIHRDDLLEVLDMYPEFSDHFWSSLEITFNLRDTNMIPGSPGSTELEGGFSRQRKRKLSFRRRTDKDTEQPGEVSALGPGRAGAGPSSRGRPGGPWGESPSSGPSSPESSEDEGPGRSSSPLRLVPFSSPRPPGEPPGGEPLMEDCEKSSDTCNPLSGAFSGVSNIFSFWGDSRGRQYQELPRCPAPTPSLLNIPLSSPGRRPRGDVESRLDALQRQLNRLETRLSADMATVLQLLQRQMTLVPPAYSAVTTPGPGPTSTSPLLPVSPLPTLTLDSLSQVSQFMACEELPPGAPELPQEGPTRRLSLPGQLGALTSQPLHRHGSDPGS
Assay: primary screen, population patch clamp on CHO cells stably expressing hERG; higher = less effect of the substance
Method: Briefly, Chinese hamster ovary (CHO) cells stably expressing the hERG channel were dislodged from tissue culture flasks and dispensed into PPC plates. […] During the recording, background leak currents were estimated by a 100 ms step to -80 mV from an initial holding potential of -70 mV and subtracted from the subsequent current measurement. The campaign was conducted in two phases using slight differences in recording protocol. […]
In all, about 310,000 compounds went through this assay and about 14,000 (4.5%) showed an effect of 50% or more. The effect is printed as a negative number. This is one part of a sample in which strong results are shown more often than they occur.
Class (by hERG current change (%, negative = inhibition) at 10uM) -- c1 = under -40%, c2 = from -40% up to -20%, c3 = -20% and over

Recorded results for 8 compounds are shown here.
compound: COc1cc(Br)cc(CN2CCN(C/C=C/c3ccccc3)CC2)c1O
category-label: c2
//
compound: COc1cccc(NC(=S)N2CCN(C/C=C/c3ccccc3)CC2)c1
category-label: c1
//
compound: COC(=O)C1=C(c2c(C)noc2C)C[C@@H]2CC[C@H]1N2C(=O)NCc1ccco1
category-label: c3
//
compound: COc1ccc(S(=O)(=O)NCC2CCCN(Cc3ccc(O)cc3)C2)cc1 (centres unmarked)
category-label: c1
//
compound: CN(C)S(=O)(=O)NCC1CCCN(Cc2ccc(-c3ccccc3)cc2)C1 (centres unmarked)
category-label: c1
//
compound: CCOc1ccccc1CN1CCCC(CNS(=O)(=O)c2ccc(OC)cc2)C1 (centres unmarked)
category-label: c1
//
compound: Cc1ccccc1CN1CCN(C/C=C/c2ccccc2)CC1
category-label: c3
//
compound: Br.COC(=O)Cn1c(=N)n(CCN2CCCCC2)c2ccccc21
category-label: c3

Exercise: Band for `Br.N=c1n(CCN2CCCCC2)c2ccccc2n1CC(=O)c1ccc(Cl)c(Cl)c1` ?
Solution: c1

Exercise: Band for CCC(Oc1cc(Cl)ccc1Cl)C(=O)N1CCC2(CC1)OCCO2 (centres unmarked) ?
Solution: c3

Exercise: Band for `COc1ccc(OC)c(NC(=S)N2CCN(C/C=C/c3ccccc3)CC2)c1` ?
Solution: c2

Exercise: Band for `O=C(COc1ccccc1)N1CCN(C(=O)COc2ccccc2)CC1` ?
Solution: c2

Exercise: Band for `Br.N=c1n(CCN2CCCCC2)c2ccccc2n1CC(=O)c1cccs1` ?
Solution: c2

Exercise: Band for c1ccc(COCCC2CO2)cc1 (centres unmarked) ?
Solution: c3
